pIC50: −log10 of the molar value.
These records show pIC50 for Aurora-B (Homo sapiens).

Previously resolved entries follow.
COc1cc2c(Oc3ccc(NC(=O)Nc4ccccc4)cc3)ccnc2cc1OCCC[C@H](N)C(=O)O = > 5.70
COc1ccc(C(=O)Nc2ccc(Oc3ccnc4cc(OCC[C@H](N)C(=O)O)c(OC)cc34)cc2)cc1 = > 5.70
COc1cc2c(Sc3ccc(NC(=O)C4CC4)cc3)ccnc2cc1OCC[C@H](N)C(=O)O = 5.30 to 5.70
COc1cc2c(Oc3ccc(CC(=O)Nc4ccc(F)cc4)cc3)ccnc2cc1OCC[C@H](N)C(=O)O = > 5.70

Problem: Report pIC50 for `COc1cc2nccc(Oc3ccc(NC(=O)c4ccccc4)cc3)c2cc1OCC[C@H](N)C(=O)OC1CCCC1` tested on Aurora-B (Homo sapiens).
Sequence (Q96GD4 whole entry): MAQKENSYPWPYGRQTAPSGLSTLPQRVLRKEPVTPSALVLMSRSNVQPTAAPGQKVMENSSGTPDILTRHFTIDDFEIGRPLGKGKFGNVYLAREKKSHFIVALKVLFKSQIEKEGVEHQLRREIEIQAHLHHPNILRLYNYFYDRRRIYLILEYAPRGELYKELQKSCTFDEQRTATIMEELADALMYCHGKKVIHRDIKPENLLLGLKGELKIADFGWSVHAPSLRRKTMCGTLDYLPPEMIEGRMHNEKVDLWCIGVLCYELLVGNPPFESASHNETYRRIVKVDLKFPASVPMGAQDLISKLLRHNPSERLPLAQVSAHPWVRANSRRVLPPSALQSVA
Solution: < 5.30

Problem: Lab request: please report pIC50 under test system Aurora-B (Homo sapiens) for `COc1cc2c(Oc3ccc(C(=O)Nc4ccccc4)cc3)ccnc2cc1OCC[C@H](N)C(=O)O`
Solution: 5.30 to 5.70

Problem: API: value(readout= pIC50, system= Aurora-B (Homo sapiens), query= `COc1cc2c(Nc3ccc(NC(=O)c4ccccc4)cc3)ccnc2cc1OCC[C@H](N)C(=O)O` )
Solution: 5.30 to 5.70

----------
molecular target: Aurora-A (Homo sapiens); assay: Aurora-A enzyme assay (MBP-coated Flashplate, γ-33P-ATP); format: biochemical; conditions: IC50 range class; read-out: Inhibitor Activity vs Aurora-A
Sequence (O14965 whole entry): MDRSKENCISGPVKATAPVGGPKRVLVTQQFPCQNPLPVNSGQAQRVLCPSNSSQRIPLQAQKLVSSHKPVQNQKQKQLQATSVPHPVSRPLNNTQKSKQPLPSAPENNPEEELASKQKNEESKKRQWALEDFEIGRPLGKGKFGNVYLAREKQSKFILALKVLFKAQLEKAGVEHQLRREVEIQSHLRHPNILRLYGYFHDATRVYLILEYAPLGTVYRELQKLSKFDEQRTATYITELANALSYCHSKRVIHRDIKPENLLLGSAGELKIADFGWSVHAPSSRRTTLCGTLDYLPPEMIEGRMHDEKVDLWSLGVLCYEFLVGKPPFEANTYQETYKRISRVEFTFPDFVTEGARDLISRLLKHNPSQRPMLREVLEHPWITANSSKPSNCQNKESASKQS
pIC50: −log10 of the molar value.
// reported pIC50 for each item listed

Here are 8 compounds together with their reported answers.
COc1cc2c(Oc3ccc(CC(=O)Nc4ccccc4F)cc3)ccnc2cc1OCC[C@H](N)C(=O)O = 5.30 to 5.70
COc1cc2c(Oc3ccc(NC(=O)Nc4ccccc4)cc3)ccnc2cc1OCC[C@H](N)C(=O)O = > 5.70
COc1cc2c(Oc3ccc(NC(=O)c4ccccc4)cc3)c(Br)cnc2cc1OCC[C@H](N)C(=O)OC1CCCC1 = < 5.30
COc1cc2c(Oc3ccc(NC(=O)c4ccccc4)cc3OC)ccnc2cc1OCC[C@H](N)C(=O)O = 5.30 to 5.70
COc1cc2c(Sc3ccc(NC(=O)C4CC4)cc3)ccnc2cc1OCC[C@H](N)C(=O)OC1CCCC1 = < 5.30
COc1cc2c(Nc3cnc(NC(=O)c4ccccc4)nc3)ccnc2cc1OCC[C@H](N)C(=O)O = > 5.70
COc1cc2nccc(Oc3ccc(NC(=O)c4ccccc4)cc3)c2cc1OCC[C@H](N)C(=O)O = > 5.70
COc1cc2c(Oc3ccc(NC(=O)c4cccc(F)c4)cc3)ccnc2cc1OCC[C@H](N)C(=O)OC1CCCC1 = 5.30 to 5.70

Now for another entry.
Problem: Given the compound `COc1cc2c(Oc3ccc(NC(=O)c4ccccc4F)cc3)ccnc2cc1OCC[C@H](N)C(=O)O` , what is its reported pIC50?
Solution: 5.30 to 5.70

----------
Quick record: pIC50, Aurora-B (Homo sapiens).
pIC50: −log10 of the molar value.

Worked examples follow.
COc1cc2c(Oc3ccc(NC(=O)Nc4ccccc4)cc3)ccnc2cc1OCC[C@H](N)C(=O)OC1CCCC1 = 5.30 to 5.70
COc1ccc(NC(=O)Cc2ccc(Oc3ccnc4cc(OCC[C@H](N)C(=O)O)c(OC)cc34)cc2)cc1 = > 5.70
COc1cc2c(Sc3ccc(NC(=O)Nc4ccc(C(F)(F)F)cc4)cc3)ccnc2cc1OCCC[C@@H](N)C(=O)O = > 5.70
COc1cc2c(Oc3ccc(NC(=O)Nc4ccc(C(F)(F)F)cc4)cc3)ccnc2cc1OCCC[C@@H](N)C(=O)OC1CCCC1 = > 5.70
COc1cc2c(Oc3ccc(NC(=O)Nc4ccccc4)cc3)ccnc2cc1OCC[C@H](N)C(=O)O = > 5.70
COc1cc2c(Oc3ccc(NC(=O)c4ccccc4)cc3)ccnc2cc1OCC[C@H](NC(C)=O)C(=O)OC1CCCC1 = 5.30 to 5.70

Next compound, pIC50 to be filled in.
Problem: Query for Aurora-B (Homo sapiens): what pIC50 does the record show for `COc1cc2c(Oc3ccc(CC(=O)Nc4ccc(F)cc4F)cc3)ccnc2cc1OCC[C@H](N)C(=O)O` ?
Solution: > 5.70
